Provide the reported growth inhibition of each item.
# procedure_summary: antimalarial activity against Dd2 strain (AID 2302);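 also: 0% = DMSO untreated growth and 100% = chloroquine plus artemisinin killed control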
# condition_parameters: P. falciparum Dd2 in RBCs, LDH growth readout, 72 h; at 2 µM; active compounds read high
API: value field is a number in %; no unit string.

What does the data say about its growth inhibition? Entry: "CC(=O)Nc1ccc(CN2CCC(NC(=O)c3ccc(-c4cccc(F)c4)s3)CC2)cc1" 13

Continue with "CN1CCCN(c2ccnc3cc4c(cc23)N(C(=O)c2ccc(Cl)cc2Cl)CC4)CC1" 51

Continue with "CC1(C)N=C(N)N=C(N)N1OCc1cc(Cl)c(Cl)cc1CON1C(N)=NC(N)=NC1(C)C" 100

Continue with "CC(C)N(CC(=O)c1ccc(O)c(C(=O)O)c1)Cc1ccccc1" 26

Continue with OC(CNc1ccnc(Nc2cccc(Cl)c2)n1)c1cccc(F)c1 (centres undefined) 29

Continue with "O=C(/C=C/c1ccc(Cl)c(Cl)c1)N1CCC(NCc2c[nH]c3ccccc23)CC1" 4

Continue with "COc1ccc(C)c(Nc2ccnc(Nc3ccc(-c4cnc[nH]4)cc3)n2)c1" 6

Continue with "O=C(Nc1ccc(F)cc1)c1nc2ccccc2nc1Cl" 62

Continue with "COc1ccc2c(NN=Cc3ccc(F)cc3)ccnc2c1" 99

Continue with "O=C(Cc1cccc2ccccc12)N1CCc2cc3nccc(N4CCN5CCC[C@H]5C4)c3cc21" 99

Continue with "Cc1cccc(-n2c(=O)c3c4c(sc3n3c(SCCC(C)C)nnc23)CCCC4)c1" 8

Continue with "CCCN(CC1CC1)c1nc(C)nc2c(-c3ccccc3)cc(C)cc12" 78

Continue with O=[N+]([O-])c1ccc(C(O)CNCCc2ccccc2)cc1OCc1ccccc1 (centres undefined) 67

Continue with "O=C(Cc1ccc(NC(=O)c2ccc(O)c(-c3ccc(Cl)c(Cl)c3)c2)cc1)NCCc1ccc(Cl)c(Cl)c1" 88

Continue with Cc1ccccc1C1CCN(C2CCC(NC(=O)C3=Cc4ccccc4OC3)CC2)CC1 (centres undefined) 15

Continue with "CCn1cc2c3c(cc(C(=O)N[C@@H](Cc4ccccc4)[C@H](O)CNC4CCOCC4)cc31)N(C)S(=O)(=O)CC2" 98

Continue with "Cn1nccc1C(=O)NCCNCc1ccc(-c2ccc(-c3nc4ccccc4[nH]3)s2)cc1" 97

Continue with "CC(=O)c1ccc(NC(=O)NNC(=O)c2ccc(CCN3CCC(c4nc(COCC(F)(F)F)c(-c5ccc(F)cc5)o4)CC3)cc2)cc1" 27

Continue with "CCCN(C(=O)c1ccccc1C)c1nnc(-c2ccccc2C)s1" 65

Continue with "COc1c(Br)cc(Br)cc1-c1ccc(CN2C3CCCC2CCC3)[nH]1" 83

Continue with "Cc1noc(C)c1-c1ccc2c(Nc3ccc([N+](=O)[O-])cc3)c(C(N)=O)cnc2c1" 98

Continue with "COc1nc(Nc2cccc(C)c2)nc(OC)n1" -5

Continue with Cc1ccc(Cn2cnc(N3CC(C)NC(C)C3)cc2=O)cc1NC(=O)Nc1ccc(-c2ccccc2)cc1 (centres undefined) 15

Continue with "Cc1cccc(Cn2c(C(N)=O)nn(-c3ccc([N+](=O)[O-])cc3C#N)c2=S)c1" 48

Continue with "C[C@@H]1CN(c2ccc3occ(C(=O)Nc4ccc(-c5ccncc5)c(Cl)c4)c3c2)C[C@H](C)N1C" 96

Continue with "COc1cc2nc(N(C)C)nc(Nc3ccc4c(cnn4Cc4ccccc4)c3)c2cc1OC" 102

Continue with "CC(C)C[C@H](NC(=O)c1ccc(F)cc1)C(=O)N[C@H](/C=N/NC(=O)c1ccccc1)CCc1ccccc1" 61

Continue with "COc1ccc2nc3cc(Cl)ccc3c(NCc3ccccc3)c2c1" 50

Continue with "CN1CCC(NCc2ccc(-c3cccc(S(=O)(=O)NCc4ccccc4)c3)cc2)CC1" 94

###

Provide the reported growth inhibition of each item.
# procedure_summary: antimalarial activity against Dd2 strain (AID 2302);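 also: 0% = DMSO untreated growth and 100% = chloroquine plus artemisinin killed control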
# condition_parameters: P. falciparum Dd2 in RBCs, LDH growth readout, 72 h; at 2 µM; active compounds read high
API: value field is a number in %; no unit string.

What does the data say about its growth inhibition? Entry: COc1ccccc1CCC(C)(C)NC(=O)CC(CCc1ccccc1)Nc1ccc(C#N)c2ccccc12 (configuration not stated) 65

Continue with "CC[C@@]1(O)C(=O)OCc2c1cc1n(c2=O)Cc2c-1nc1cc3c(cc1c2CN1CCN(C)CC1)OCCO3" 97

Continue with "CN(C)CCNC(=O)c1ccc(-c2cnc3ccc(NCc4ccc(Cl)c(Cl)c4)nn23)cc1" 98

Continue with Cc1cccn2c(=O)c3cc(C(=O)NC(C)c4ccccc4)c(=N)n(CCN4CCOCC4)c3nc12 (configuration not stated) 5

Continue with O=C(Nc1cccc(C(F)(F)F)c1)NC1CCN(c2ccnc3ccccc23)C1 (configuration not stated) 69

Continue with "O=C(Nc1ccc(-c2cccc(-c3nc4ccccc4[nH]3)c2)cc1)Nc1ccc2c(c1)OCO2" 65

Continue with "CCOc1cccc(C(=O)Nc2cccc(CN3CCCN(Cc4ccc(O)cc4)CC3)c2)c1" 31

###

# procedure_summary: antimalarial activity against Dd2 strain (AID 2302);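 also: 0% = DMSO untreated growth and 100% = chloroquine plus artemisinin killed control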
# condition_parameters: P. falciparum Dd2 in RBCs, LDH growth readout, 72 h; at 2 µM
The source made the active and inactive calls.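 The calls were made as follows: active = growth inhibition above 50% at the single 2 µM test dose, taken to imply half-maximal potency below 2 µM; inactive = the rest.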
Write down one outcome, taken from class 1 = active, class 0 = inactive

Could you kindly confirm the outcome this assay logged for "Cc1nnnn1-c1ccc(C(=O)N2CCC3(CC2)CN(Cc2ccc(Cl)c(Cl)c2)C(=O)O3)cc1" ? class 1

Continue with "COc1ccc2ncc(F)c(CCN3CCC(NCc4cc(C)c5c(c4)OCCO5)CC3)c2n1" class 1

Continue with "CCc1ccc(NC(=O)c2ccc(CN3CCCN(Cc4cccs4)CC3)cc2)cc1" class 0

Continue with "CN(C)CCOc1ccc(N2CCN(CCCCNC(=O)c3ccc(/C=C/c4cc(Cl)cc(Cl)c4)cc3)CC2)cc1" class 1

Continue with "COc1ccc2nccc([C@@H](O)CN3CCC(NCc4nc5ccccc5s4)CC3)c2c1" class 0

Continue with "COc1cc(NC2=C(c3ccccc3)C(=O)c3ccccc32)ccn1" class 1

###

# procedure_summary: inhibition of 3D7 malaria parasite growth – strain 3D7 (AID 2306);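 also: 0% = DMSO wells and 100% = chloroquine plus artemisinin control wells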
# condition_parameters: P. falciparum 3D7 erythrocytic growth, LDH absorbance, 72 h; at 2 µM; active compounds read high
Activity calls are given as the source filed them. No rule for the calls is given here.
endpoint: growth inhibition

What does the data say about its growth inhibition? Entry: CS(=O)(=O)N1CC2(CCN(CCC(NC(=O)NCc3ccccc3Cl)c3ccc(Cl)c(Cl)c3)CC2)c2ccccc21 (stereo not drawn) 85% (active)

Continue with "COc1ccc(CNCc2ccc(-c3ccc(-c4nc5c(C)cccc5[nH]4)cc3)cc2)cc1" 101% (active)

Continue with "NC1CCN(c2nc(NCCCc3ccc(O)cc3)nc(NCc3cccc4ccccc34)n2)CC1" 102% (active)

###

# procedure_summary: inhibition of 3D7 malaria parasite growth – strain 3D7 (AID 2306);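 also: 0% = DMSO wells and 100% = chloroquine plus artemisinin control wells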
# condition_parameters: P. falciparum 3D7 erythrocytic growth, LDH absorbance, 72 h; at 2 µM; active compounds read high
endpoint: growth inhibition (%)
API: value field is a number in %; no unit string.

What does the data say about its growth inhibition? Entry: "Cc1cc(C(=O)Nc2nc(-c3ccccn3)nc3ccsc23)no1" 98

Continue with "COc1ccc2c(NN=Cc3ccc(OC)c4ccccc34)cc(C)nc2c1" 101

Continue with Cn1cncc1C(=O)NC1CCN(c2ccnc(Nc3ccc(F)cc3)n2)C1 (stereo not drawn) 97

Continue with "CC(=NN=C(N)N)C(=O)Nc1ccc(Cl)c(Cl)c1" 101

Continue with CC1CN=C(c2ccc(NC(=O)c3ccc(C(=O)Nc4ccc(C5=NCC(C)N5)cc4)cc3)cc2)N1 (stereo not drawn) 99

Continue with "CCN(CC)CCN(Cc1ccc(-c2ccc(C(F)(F)F)cc2)cc1)C(=O)Cn1c(CCc2c(F)cc(F)cc2F)nc(=O)c2ccccc21" 89

Continue with "CCNC(=O)Nc1ccc(-c2ccc(-c3nc4c(C)cccc4[nH]3)s2)cc1" 96

Continue with "CCc1cc([C@H]2O[C@@H](n3cnc4c(NCC(c5ccccc5)c5ccccc5)nc(NCCNc5ccccn5)nc43)[C@H](O)[C@@H]2O)on1" 94

Continue with "COc1ccc(CNCc2ccccc2)cc1-c1ccc(S(=O)(=O)NCCN2CCCC2)c(C)c1" 99

Continue with "O=S(=O)(NCCN1CCCC1)c1ccc(-c2ccc(CNC3Cc4ccccc4C3)cc2)cc1F" 101

Continue with "O=C(Nc1cccc(C(F)(F)F)c1)Nc1cc(F)c(F)cc1Cl" 83

Continue with "COc1cc2ccccc2c(OC)c1CNCCCCCCNCc1c(OC)cc2ccccc2c1OC" 93

Continue with "CC(C)CNCc1ccc(-c2cccc(CN(CCCN3CCN(C)CC3)C(=O)/C=C/c3ccccc3)c2)cc1" 95

Continue with "CC(=O)N(Cc1nc(-c2cc(Cl)c(Cl)s2)cs1)c1c(C)cccc1C" 98

Continue with "c1ccc(CN2CCC(NCc3cccc(-c4cncc5ccccc45)c3)CC2)cc1" 92

Continue with "COc1ccc(NC(=O)c2ccc(Br)c(C)c2)cc1N1CCN(CCCc2c[nH]c3ccccc23)CC1" 102

Continue with "O=S(=O)(NCCN1CCCC1)c1ccc(-c2ccc(CNCc3ccsc3)cc2)s1" 99

Continue with "C=CCNc1cc(-c2ccccn2)nc(-c2ccccn2)n1" 94
